- Tested on: Human immunodeficiency virus 2
- Assay Text: Antiviral activity against HIV2 in human M8166 cells assessed as virus-induced cytopathogenicity after 4 days by MTT assay
- Format: functional, organism-based
- Protocol Conditions: Human immunodeficiency virus 2, M8166, 96 h
Assign pEC50 to each entry below.
Give bare numbers, as −log10 of the molar value.

Reference set, count: 3
Cc1cn([C@H]2C[C@H](O)[C@](CO)(N=[N+]=[N-])S2)c(=O)[nH]c1=O ... 7.62
Cc1cn([C@H]2C[C@H](O)[C@@](C#N)(CO)S2)c(=O)[nH]c1=O ... 7.64
C#C[C@]1(CO)S[C@@H](n2cc(C)c(=O)[nH]c2=O)C[C@@H]1O ... 6.89

Next, consider the following compound.
Please supply the value of reported pEC50 for the item "CO[C@]1(CO)S[C@@H](n2cc(C)c(=O)[nH]c2=O)C[C@@H]1O"
5.92
